Test system: PC-3 [JPC-3]
PROTOCOL: relative viability (nuclei count vs DMSO), 5 days (fraction); higher = more cells survive
TEST_CONDITIONS: first compound 0.1265 µM
OBSERVATION_TYPE: relative viability
Lab note: jot the number down without any unit.

stdin: Report relative viability for Cc1sc2c(c1C)C(c1ccc(Cl)cc1)=N[C@@H](CC(=O)OC(C)(C)C)c1nnc(C)n1-2 [JQ1] + Cc1cc(Nc2cc(N3CCN(C)CC3)nc(Sc3ccc(NC(=O)C4CC4)cc3)n2)n[nH]1 [Tozasertib] (partner 0.1 µM) please.
stdout: 0.935

stdin: Lookup Cc1sc2c(c1C)C(c1ccc(Cl)cc1)=N[C@@H](CC(=O)OC(C)(C)C)c1nnc(C)n1-2 [JQ1] + NC(=O)Nc1cc(-c2cccc(F)c2)sc1C(=O)N[C@H]1CCCNC1 [AZD7762] (partner 0.2 µM)
stdout: 0.849

stdin: Lookup Cc1sc2c(c1C)C(c1ccc(Cl)cc1)=N[C@@H](CC(=O)OC(C)(C)C)c1nnc(C)n1-2 [JQ1] + CCNC(=O)c1noc(-c2cc(C(C)C)c(O)cc2O)c1-c1ccc(CN2CCOCC2)cc1 [Luminespib] (partner 0.01 µM)
stdout: 0.716

====

Could you please report measured relative viability for the items listed next?
System: HCC-44
PROTOCOL: relative viability (nuclei count vs DMSO), 5 days (fraction); higher = more cells survive
TEST_CONDITIONS: first compound 0.1265 µM
Lab note: jot the number down without any unit.

stdin: Report relative viability for Cc1sc2c(c1C)C(c1ccc(Cl)cc1)=N[C@@H](CC(=O)OC(C)(C)C)c1nnc(C)n1-2 [JQ1] + Cc1nc(NC(=O)N2CCC[C@H]2C(N)=O)sc1-c1ccnc(C(C)(C)C(F)(F)F)c1 [Alpelisib] (partner 2 µM) please.
stdout: 0.518

stdin: Lookup Cc1sc2c(c1C)C(c1ccc(Cl)cc1)=N[C@@H](CC(=O)OC(C)(C)C)c1nnc(C)n1-2 [JQ1] + COc1cccc2cc(-c3nc([C@H]4CC[C@H](C(=O)O)CC4)n4ncnc(N)c34)[nH]c12 [OSI-027] (partner 0.5 µM)
stdout: 0.293

stdin: Lookup Cc1sc2c(c1C)C(c1ccc(Cl)cc1)=N[C@@H](CC(=O)OC(C)(C)C)c1nnc(C)n1-2 [JQ1] + C[C@]1(O)C[C@@H](c2nc(-c3ccc4ccc(-c5ccccc5)nc4c3)c3c(N)nccn32)C1 [Linsitinib] (partner 1 µM)
stdout: 0.448

stdin: Lookup Cc1sc2c(c1C)C(c1ccc(Cl)cc1)=N[C@@H](CC(=O)OC(C)(C)C)c1nnc(C)n1-2 [JQ1] + Nc1nc2[nH]cc(CCc3ccc(C(=O)N[C@@H](CCC(=O)O)C(=O)O)cc3)c2c(=O)[nH]1 [Pemetrexed] (partner 0.2 µM)
stdout: 0.617

stdin: Lookup Cc1sc2c(c1C)C(c1ccc(Cl)cc1)=N[C@@H](CC(=O)OC(C)(C)C)c1nnc(C)n1-2 [JQ1] + CCNC(=O)c1noc(-c2cc(C(C)C)c(O)cc2O)c1-c1ccc(CN2CCOCC2)cc1 [Luminespib] (partner 0.01 µM)
stdout: 0.433

stdin: Lookup Cc1sc2c(c1C)C(c1ccc(Cl)cc1)=N[C@@H](CC(=O)OC(C)(C)C)c1nnc(C)n1-2 [JQ1] + CC(C)C[C@H](NC(=O)[C@H](Cc1ccccc1)NC(=O)c1cnccn1)B(O)O [Bortezomib] (partner 0.002 µM)
stdout: 0.702

stdin: Lookup Cc1sc2c(c1C)C(c1ccc(Cl)cc1)=N[C@@H](CC(=O)OC(C)(C)C)c1nnc(C)n1-2 [JQ1] + Nc1ncn([C@H]2C[C@H](O)[C@@H](CO)O2)c(=O)n1 [Decitabine] (partner 2 µM)
stdout: 0.63

stdin: Lookup Cc1sc2c(c1C)C(c1ccc(Cl)cc1)=N[C@@H](CC(=O)OC(C)(C)C)c1nnc(C)n1-2 [JQ1] + NC(=O)Nc1cc(-c2cccc(F)c2)sc1C(=O)N[C@H]1CCCNC1 [AZD7762] (partner 0.2 µM)
stdout: 1.14

====

Could you please report measured relative viability for the items listed next?
System: NCI-H1666
PROTOCOL: relative viability (nuclei count vs DMSO), 5 days (fraction); higher = more cells survive
TEST_CONDITIONS: first compound 0.1581 µM
Lab note: jot the number down without any unit.

stdin: Report relative viability for Nc1ccn([C@@H]2O[C@H](CO)[C@@H](O)[C@@H]2O)c(=O)n1 [Cytarabine] + NC(=O)Nc1cc(-c2cccc(F)c2)sc1C(=O)N[C@H]1CCCNC1 [AZD7762] (partner 0.2 µM) please.
stdout: 0.444

stdin: Lookup COc1cc2nccc(Oc3ccc(NC(=O)Nc4cc(C)on4)c(Cl)c3)c2cc1OC [Tivozanib] + COc1cccc2cc(-c3nc([C@H]4CC[C@H](C(=O)O)CC4)n4ncnc(N)c34)[nH]c12 [OSI-027] (partner 0.5 µM)
stdout: 0.799

stdin: Lookup COc1cc2nccc(Oc3ccc(NC(=O)Nc4cc(C)on4)c(Cl)c3)c2cc1OC [Tivozanib] + O=C(CCCCCCC(=O)Nc1ccccc1)NO [Vorinostat] (partner 1 µM)
stdout: 1.09

stdin: Lookup COc1cc2nccc(Oc3ccc(NC(=O)Nc4cc(C)on4)c(Cl)c3)c2cc1OC [Tivozanib] + CC(C)C[C@H](NC(=O)[C@H](Cc1ccccc1)NC(=O)c1cnccn1)B(O)O [Bortezomib] (partner 0.002 µM)
stdout: 0.74

stdin: Lookup COc1cc2nccc(Oc3ccc(NC(=O)Nc4cc(C)on4)c(Cl)c3)c2cc1OC [Tivozanib] + CCNC(=O)c1noc(-c2cc(C(C)C)c(O)cc2O)c1-c1ccc(CN2CCOCC2)cc1 [Luminespib] (partner 0.01 µM)
stdout: 1.01

stdin: Lookup Nc1ccn([C@@H]2O[C@H](CO)[C@@H](O)[C@@H]2O)c(=O)n1 [Cytarabine] + C[C@]1(O)C[C@@H](c2nc(-c3ccc4ccc(-c5ccccc5)nc4c3)c3c(N)nccn32)C1 [Linsitinib] (partner 1 µM)
stdout: 0.344

stdin: Lookup COc1cc2nccc(Oc3ccc(NC(=O)Nc4cc(C)on4)c(Cl)c3)c2cc1OC [Tivozanib] + C[C@]1(O)C[C@@H](c2nc(-c3ccc4ccc(-c5ccccc5)nc4c3)c3c(N)nccn32)C1 [Linsitinib] (partner 1 µM)
stdout: 0.783

stdin: Lookup COc1cc2nccc(Oc3ccc(NC(=O)Nc4cc(C)on4)c(Cl)c3)c2cc1OC [Tivozanib] + CC(=O)c1c(C)c2cnc(Nc3ccc(N4CCNCC4)cn3)nc2n(C2CCCC2)c1=O [Palbociclib] (partner 0.5 µM)
stdout: 0.668

stdin: Lookup Nc1ccn([C@@H]2O[C@H](CO)[C@@H](O)[C@@H]2O)c(=O)n1 [Cytarabine] + CC1(C)CCC(c2ccc(Cl)cc2)=C(CN2CCN(c3ccc(C(=O)NS(=O)(=O)c4ccc(N[C@H](CCN5CCOCC5)CSc5ccccc5)c(S(=O)(=O)C(F)(F)F)c4)cc3)CC2)C1 [Navitoclax] (partner 0.5 µM)
stdout: 0.41

====

Tested on: NCI-H1792
PROTOCOL: relative viability (nuclei count vs DMSO), 5 days (fraction); higher = more cells survive
TEST_CONDITIONS: first compound 8 µM
Could you please report measured relative viability for the items listed next?

stdin: Report relative viability for O=c1[nH]c2ccccc2n1C1CCN(CCCC(c2ccc(F)cc2)c2ccc(F)cc2)CC1 [Pimozide] + CS(=O)(=O)N1CCN(Cc2cc3nc(-c4cccc5[nH]ncc45)nc(N4CCOCC4)c3s2)CC1 [Pictilisib] (partner 1 µM) please.
stdout: 0.314

stdin: Lookup O=c1[nH]c2ccccc2n1C1CCN(CCCC(c2ccc(F)cc2)c2ccc(F)cc2)CC1 [Pimozide] + N=C(N)NC(=N)NCCc1ccccc1 [Phenformin] (partner 250 µM)
stdout: 0.278

stdin: Lookup O=c1[nH]c2ccccc2n1C1CCN(CCCC(c2ccc(F)cc2)c2ccc(F)cc2)CC1 [Pimozide] + CC1(C)CCC(c2ccc(Cl)cc2)=C(CN2CCN(c3ccc(C(=O)NS(=O)(=O)c4ccc(N[C@H](CCN5CCOCC5)CSc5ccccc5)c(S(=O)(=O)C(F)(F)F)c4)cc3)CC2)C1 [Navitoclax] (partner 0.5 µM)
stdout: 0.649

stdin: Lookup O=c1[nH]c2ccccc2n1C1CCN(CCCC(c2ccc(F)cc2)c2ccc(F)cc2)CC1 [Pimozide] + CC(=O)Nc1cccc(-n2c(=O)n(C3CC3)c(=O)c3c(Nc4ccc(I)cc4F)n(C)c(=O)c(C)c32)c1 [Trametinib] (partner 0.02 µM)
stdout: 0.454

stdin: Lookup O=c1[nH]c2ccccc2n1C1CCN(CCCC(c2ccc(F)cc2)c2ccc(F)cc2)CC1 [Pimozide] + CC(C)C[C@H](NC(=O)[C@H](Cc1ccccc1)NC(=O)c1cnccn1)B(O)O [Bortezomib] (partner 0.002 µM)
stdout: 0.976

stdin: Lookup O=c1[nH]c2ccccc2n1C1CCN(CCCC(c2ccc(F)cc2)c2ccc(F)cc2)CC1 [Pimozide] + NC(=O)Nc1cc(-c2cccc(F)c2)sc1C(=O)N[C@H]1CCCNC1 [AZD7762] (partner 0.2 µM)
stdout: 0.5

stdin: Lookup O=c1[nH]c2ccccc2n1C1CCN(CCCC(c2ccc(F)cc2)c2ccc(F)cc2)CC1 [Pimozide] + Cc1nc(Nc2ncc(C(=O)Nc3c(C)cccc3Cl)s2)cc(N2CCN(CCO)CC2)n1 [Dasatinib] (partner 0.075 µM)
stdout: 0.849

Hello, the source for this data is the supplement of paper PMC10307832, in case you need it.
